- measured_on: WDR5 20-334 WD40 (domain begin residue: 20, domain end residue: 334), P61964
- protocol_description: phage ELISA signal ratio (GST-PRM binding over GST background); higher = stronger binding of peptide-phage to the PRM

# binder, phage ELISA signal ratio
measured = [
    ("ETQDPPEVRQYTMVSR", 13.8),
    ("VEFWWSDTSARTLPFK", 9.42),
    ("QRTMAWKSEDHLMPQS", 14.9),
    ("RTDPEQYQRTMMVPRG", 12.1),
    ("SARTGYDNYLKPSSQQ", 22),
    ("KKPVPMRWEHTYTETM", 20.2),
    ("GAARTQGVEWHSQHSH", 14.9),
    ("RTEPYVHQQPTPQAPA", 12.4),
    ("RTEPYQWMKAAGFPTS", 9.24),
    ("FELAGRWEPLMMYEWV", 12.8),
    ("SARSEPYPSTNFTWTH", 25.7),
]

Origin of the recorded values: the supplement of paper PMC7724964
